Recorded recombinant UMI read abundance (log10) values for a group of sequences are listed next.
experiment: recombinant UMI read abundance after kanamycin selection (control-corrected) (log10(CPM+1)); higher = more efficient recombination; extreme values may be limits of the assay; sequences stand for … in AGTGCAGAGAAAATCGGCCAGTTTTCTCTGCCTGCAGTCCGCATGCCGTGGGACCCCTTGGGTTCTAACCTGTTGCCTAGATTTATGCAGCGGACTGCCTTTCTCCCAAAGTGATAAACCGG…AGGTTGGTTTCACT; site = the 11-nt donor;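 further: IS621 bridge recombinase in Escherichia coli cells against a fixed T5 target plasmid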
measure.name: recombinant UMI read abundance (log10)

> print(dat)
                              query.sequence  measurement
 1  TGCCCAACATGGACCGGTTTTCCCGGTAATCCGTATTTGGT (site TGCCCAACTAC)         0.06
 2  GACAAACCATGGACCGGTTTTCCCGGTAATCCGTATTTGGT (site TACAAACCTAC)            0
 3  CCGGAGTCATGGACCGGTTTTCCCGGTAATCCGTATTTGCC (site CAGGAGTCTGG)            0
 4  CTCGTATCATGGACCGGTTTTCCCGGTAATCCGTATTTGAC (site CTGGTATCTGT)            0
 5  AGTTGGCCATGGACCGGTTTTCCCGGTAATCCGTATTTGGG (site AGTTGGCCTCC)       0.0248
 6  CTACTATCATGGACCGGTTTTCCCGGTAATCCGTATTTGAC (site CTAATATCTGT)            0
 7  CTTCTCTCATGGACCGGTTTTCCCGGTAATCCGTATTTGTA (site CTTATCTCTTA)      0.00276
 8  GTTGGACCATGGACCGGTTTTCCCGGTAATCCGTATTTGCC (site GTTGGACCTGG)            0
 9  TCCCTTCCATGGACCGGTTTTCCCGGTAATCCGTATTTGCG (site TCCCTTCCTCG)            0
10  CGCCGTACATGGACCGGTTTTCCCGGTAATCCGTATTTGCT (site CGCCATACTAG)        0.922
11  TATATGGCATGGACCGGTTTTCCCGGTAATCCGTATTTGTG (site TATTTGGCTCA)       0.0941
